pIC50 by entry:
target: Genome polyprotein (dengue virus type 2); type: functional, Thailand/16681/1984
pIC50: −log10 of the molar value.

Compound String: O=C1Cc2c(cccc2C(=O)Nc2ccc3c(c2)CCNCC3)N1
Property Name: pIC50
Recorded Value: 4.47
--
Compound String: N#Cc1ccc(N2CCN(Cc3c[nH]c4ccccc34)CC2)cc1
Property Name: pIC50
Recorded Value: < 4.00

### Prompt // lookup pIC50 for `O=C(Nc1ccc2c(c1)CNC2)c1cc(C(F)(F)F)cc2[nH]ccc12`
### Response < 4.00

### Prompt // lookup pIC50 for `NCc1nc2cc(Cl)ccc2n1Cc1ccc(-c2nn[nH]n2)cc1`
### Response < 4.00

### Prompt // lookup pIC50 for `N[C@H]1CCCc2ccc(NC(=O)c3cc(Cl)cc4[nH]ncc34)cc21`
### Response < 4.00

### Prompt // lookup pIC50 for `Cc1c(C(=O)Nc2ccc(CCN)cc2)cc(C2CC2)n1C`
### Response < 4.00

### Prompt // lookup pIC50 for `NC(=O)COc1ccc(Br)cc1[C@H](Nc1ccc2c(c1)CNC2)C(=O)NCC(F)F`
### Response < 4.00

### Prompt // lookup pIC50 for `O=C1Cc2c(cccc2C(=O)Nc2nnc3n2CCCS3)N1`
### Response < 4.00

### Prompt // lookup pIC50 for `O=C(Nc1cc(Cl)cc(C(=O)Nc2cc(C(=O)O)ccn2)c1)OCc1ccccc1`
### Response 4.45

### Prompt // lookup pIC50 for `c1cnc2[nH]cc(C3CCN(Cc4c[nH]c5ccncc45)CC3)c2c1`
### Response < 4.00

### Prompt // lookup pIC50 for `Cn1nc(C(=O)Nc2cccc(CN)c2)cc1C1CC1`
### Response < 4.00

* * *

target: Genome polyprotein (dengue virus type 2, UniProt P29990); assay type: functional, Thailand/16681/1984
Sequence (P29990 1346-1475 limits assumed): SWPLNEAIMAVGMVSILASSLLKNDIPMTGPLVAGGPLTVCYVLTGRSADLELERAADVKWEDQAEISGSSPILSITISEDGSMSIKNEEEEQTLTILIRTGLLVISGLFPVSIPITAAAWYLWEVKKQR
Sequence (P29990 1476-2093 limits assumed): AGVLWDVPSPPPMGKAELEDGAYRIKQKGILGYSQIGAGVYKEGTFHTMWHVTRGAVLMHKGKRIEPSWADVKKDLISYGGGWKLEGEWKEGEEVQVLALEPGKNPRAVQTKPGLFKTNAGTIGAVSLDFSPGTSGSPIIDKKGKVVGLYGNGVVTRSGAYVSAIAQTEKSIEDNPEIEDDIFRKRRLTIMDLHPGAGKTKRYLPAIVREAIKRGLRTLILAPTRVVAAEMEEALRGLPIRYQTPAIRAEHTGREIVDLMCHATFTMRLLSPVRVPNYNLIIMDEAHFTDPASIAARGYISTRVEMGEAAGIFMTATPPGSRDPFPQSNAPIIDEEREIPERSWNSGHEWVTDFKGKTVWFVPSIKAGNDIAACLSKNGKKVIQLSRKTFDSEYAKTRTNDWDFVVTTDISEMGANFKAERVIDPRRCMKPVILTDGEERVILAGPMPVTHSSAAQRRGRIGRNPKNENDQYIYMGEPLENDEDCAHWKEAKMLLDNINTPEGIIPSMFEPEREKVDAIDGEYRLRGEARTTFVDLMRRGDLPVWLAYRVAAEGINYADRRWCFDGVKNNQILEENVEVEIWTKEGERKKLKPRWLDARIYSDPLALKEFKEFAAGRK
Property Name: IC50 (µM)
Dear colleague, please return just the value in µM, with no unit written.

### Prompt // lookup IC50 for `O=C(Nc1cc2c(c(C3=CC[C@H](O)CC3)c1)CNC2)c1cc(Cl)cc2[nH]ncc12`
### Response 69.5

* * *

biological target: Genome polyprotein (dengue virus type 2); format: functional, Thailand/16681/1984
pIC50: −log10 of the molar value.
pIC50 by entry:

Compound String: N#Cc1ccc2[nH]cc(CN3CCC(c4cscn4)CC3)c2c1
pIC50: < 4.00

Compound String: O=C(Nc1ccc2c(c1)CNC2)c1cc(Br)cc2[nH]c([C@H]3CCCO3)nc12
pIC50: < 4.00

Compound String: N[C@H]1CCOc2ccc(NC(=O)c3cc(Cl)cc(NC(=O)OCc4ccccc4)c3)cc21
pIC50: < 4.00

Compound String: Cc1c(C(=O)Nc2cc(-c3ccccc3)ccn2)cc(C2CC2)n1C
pIC50: < 4.00

Compound String: CCc1nc2c(C(=O)Nc3ccc4c(c3)CNC4)cc(Br)cc2[nH]1
pIC50: 4.61

### Prompt // lookup pIC50 for `COc1c(C(=O)N(C)C)cc(Cl)cc1S(=O)(=O)Nc1cccc(-c2nnn[nH]2)c1`
### Response < 4.00

* * *

molecular target: Genome polyprotein (dengue virus type 2, UniProt P29990); type: functional, Thailand/16681/1984
Property Name: IC50

Example cases with answers are listed next.
Compound String: O=C(c1cc(Cl)cc2[nH]ncc12)N1C[C@H]2CNC[C@H]2C1
Property Name: IC50
Recorded Value: > 99.5 µM

Compound String: NCc1cccc(NC(=O)c2cc(Cl)ccc2-n2cncn2)c1
Property Name: IC50
Recorded Value: > 99.5 µM

### Prompt Query for Genome polyprotein (dengue virus type 2, UniProt P29990): what IC50 does the record show for `NCc1cccc(NC(=O)c2cc(C3CC3)nc3ccc(Cl)cc23)c1` ?
### Response > 99.5 µM

### Prompt Query for Genome polyprotein (dengue virus type 2, UniProt P29990): what IC50 does the record show for `Cc1nn(C)cc1S(=O)(=O)N[C@@H](C(=O)Nc1cccc(CN)c1)c1ccc(OCc2ccccc2)cc1` ?
### Response > 99.5 µM

### Prompt Query for Genome polyprotein (dengue virus type 2, UniProt P29990): what IC50 does the record show for `O=C(Nc1ccc2c(c1)CNC2)c1cccc(-c2cnco2)c1` ?
### Response 27.6 µM
